system: OVCAR-8 ovarian; assay: NCI tumour cell line growth inhibition, 48 h
QUANTITY NAME: TGI (µM)
Give bare numbers, in µM.

Consider the reported TGI for these compounds:
• COc1cc(OC)cc(-c2ccc(-c3ccc(C(=N)N)cn3)s2)c1 = 5.3
• CC1(Cl)CC(C)(/C=C/Cl)C(Cl)CC1Cl (centres undefined) = 31.3
• CC(=O)[C@]1(O)Cc2c(O)c3c(c(O)c2[C@@H](OC2CC(N)C(O)C(C)O2)C1)C(=O)c1c(OCc2ccccc2)cccc1C3=O (some centres undefined) = 7.8

Here's the next entry for you.
Q: Which TGI is listed for O=c1[nH]c2ccc([N+](=O)[O-])c(Cl)c2c2ccccc12 ?
Result: 3.56

---

test system: UACC-62 melanoma; assay: NCI tumour cell line growth inhibition, 48 h
Task for the reader: assign each of the following compounds its reported TGI.

• CC(C)(CN1CCCCC1)C(=O)CC(SCCS(=O)(=O)O)c1ccc(Cl)cc1 (stereo not drawn) = 13.6 µM
• c1cncc([O][Ge]([O]c2cccnc2)([O]c2cccnc2)[O]c2cccnc2)c1 = > 100 µM
• C/C(Nc1ccc(Cl)cc1)=C1/CCOC1=O = > 100 µM
• O=C(c1ccccc1)C(Br)C(Br)c1ccccc1 (stereo not drawn) = 24.2 µM
• Cc1cc(Nc2ccc(Cl)cc2)nc(NCCCNc2ccnc3cc(Cl)ccc23)n1 = 3.58 µM
• C#CC#CC#CC#CC#CC#CC#CC#CC[C@@H]1OC[C@@H](COC(=O)O[C@@H](C(=O)O[C@H]2C[C@@]3(O)[C@@H](OC(=O)c4ccccc4)[C@@H]4[C@]5(OC(C)=O)CO[C@@H]5C[C@H](O)[C@@]4(C)C(=O)[C@H](OC(C)=O)C(=C2C)C3(C)C)[C@@H](NC(=O)c2ccccc2)c2ccccc2)O1 = > 33.3 µM
• C#Cc1cccc(NC(=O)C2CCCN(C(=O)CCl)C2)c1 (stereo not drawn) = > 82.5 µM

Here's the next entry for you.
Q: Please state recorded TGI (tested on UACC-62 melanoma) of C=C(Cn1c2ccccc2c(=O)c2ccccc21)c1ccc(C(=O)Nc2ccccc2N)cc1
Result: > 100 µM

---

tested on: HOP-92 NSCLC; experiment: NCI tumour cell line growth inhibition, 48 h
Task for the reader: assign each of the following compounds its reported TGI.
Give bare numbers, in µM.

- COc1cc([C@@H]2Oc3cc4oc(-c5ccccc5)cc(=O)c4c(O)c3O[C@H]2OC)ccc1O: 39.5
- COc1cc(/C=C2\C(=O)N(C)c3ccccc32)cc(OC)c1OC: 70.6
- COc1ccc(/C=N/NC(=S)Nc2cc(C)ccc2OC)cc1: 72
- CN(C)c1ccc(N=C2C=CC(=C(C#N)C#N)c3ccccc32)cc1: 1.06

Lab note: each compound below needs its TGI filled in.
1. Oc1ccccc1C=Nc1nc(OCc2ccccc2)nc2[nH]ncc12
2. C=CCN1C(=O)CC(=O)N(NC2=NNC3(C(=O)N2)c2ccccc2-c2ccccc23)C1=S

Result:
1. 43.7
2. 61.8

---

tested on: HCC-2998 colon; test: NCI tumour cell line growth inhibition, 48 h; in the data active means GI50 below about 0.43 µM; inactive means the rest
Respond using exactly one of the listed classes: label 1 (active), label 0 (inactive)

Below, 5 molecules whose answers are already recorded.
- CNCc1ccc(-c2[nH]c3cc(F)cc4c3c2CCNC4=O)cc1: label 0
- Clc1ccc2c(NCCCN3CCN(c4nc(N5CCOCC5)nc5ccccc45)CC3)ccnc2c1: label 0
- Oc1ccccc1C=Nc1nc(OCc2ccccc2)nc2[nH]ncc12: label 0
- NC(N)=N/N=C/c1c(-c2ccc(Cl)c([N+](=O)[O-])c2)nc2sc3ccccc3n12: label 1
- COc1cccc(C2C(C#N)=C(N)Oc3cc4c(cc32)OCO4)c1 (centres undefined): label 1

Q: Given C#CC#CC#CC#CC#CC#CC#CC#CC[C@@H]1OC[C@@H](COC(=O)O[C@@H](C(=O)O[C@H]2C[C@@]3(O)[C@@H](OC(=O)c4ccccc4)[C@@H]4[C@]5(OC(C)=O)CO[C@@H]5C[C@H](O)[C@@]4(C)C(=O)[C@H](OC(C)=O)C(=C2C)C3(C)C)[C@@H](NC(=O)c2ccccc2)c2ccccc2)O1 , state the outcome it received in this test.
Result: label 1

Q: Given C=CCN=C(N/N=C/c1ccc([N+](=O)[O-])o1)NS(=O)(=O)c1cc(C(=O)Nc2ccccc2)c(Cl)cc1SCC(N)=O , state the outcome it received in this test.
Result: label 0

Q: Given COc1ccc(/C=C/C(C)=N/OCC(=O)Nc2ccc(Cl)cc2)cc1 , state the outcome it received in this test.
Result: label 0

Q: Given COc1ccc(Cc2nc3cc(OC)c(OC)cc3c(=O)[nH]2)cc1 , state the outcome it received in this test.
Result: label 0
